test system: COLO 205 colon; experiment: NCI-60 one-dose screen, 48 h; details: 10 µM
The panel holds about 83,000 compounds, 20% with a hit somewhere; the sample as a whole holds those more often. Activity calls are given as the source filed them. The calls were made as follows: active = growth percent below 10; inactive = the rest.
One label from this list, please: active, inactive

Cc1cc(NC(=O)NCCOc2ccc(N3C(N)=NC(N)=NC3(C)C)cc2Cl)ccc1S(=O)(=O)F; inactive
C=CCC1(CC)C(=O)NC(=S)NC1=O; inactive
CC(/C=N/N=C(N)N)=N/N=C(N)N; inactive
C/C(=N/OC(=O)N(C)C)c1ccc(Cl)cc1Cl; inactive
COc1cc(C2CC(=O)Nc3nc(N)[se]c32)cc(OC)c1OC (configuration not stated); inactive
Cc1cccc(N=C2c3cc([N+](=O)[O-])ccc3-c3c2cc([N+](=O)[O-])cc3[N+](=O)[O-])c1; inactive
O=C1C=CC(=O)C2C1C1(Cl)C(Cl)=C(Cl)C2(Cl)C1(Cl)Cl (configuration not stated); inactive
CNc1ccc(C(=O)CC(O)CCC(C)C2OC(=O)CC(O)CC(=O)CC(O)CC(O)CC(O)CC(O)CC3(O)CC(O)C(C(=O)OC)C(CC(O[C@@H]4O[C@H](C)[C@@H](O)[C@H](N)[C@@H]4O)/C=C/C=C/C=C/C=C/C=C/C=C/C=C/C2C)O3)cc1 (some centres not stated); active
COc1ccc(/C=C\c2cc(OC)c(OC)c(OC)c2)cc1N/C=C\C(=O)c1c[nH]c2ccccc12; active
CC(=O)O[C@H]1CCC2(C)C(=CCC3C2CCC2(C)/C(=N/OC(=O)c4ccc(N(CCCl)CCCl)cc4)CCC32)C1 (some centres not stated); inactive

API: the following record is the query input.
Query: Hey, what did the test say about CCOc1cc(C=C(C#N)C#N)cc(Br)c1O ?
Response: inactive

---

system: MDA-MB-435 melanoma; test: NCI-60 one-dose screen, 48 h (100 = growth as untreated, 0 = no growth, -100 = all killed); details: 10 µM unless noted
Compounds without any hit were thinned out: in the full panel of roughly 83,000, 20% have a hit.
Kindly state growth for each of the entries shown.
Answers are plain numbers, in %.

C=CCN1C(=O)C(CC)(CCC(C)C)C(=O)NC1=S (stereo not drawn); 101
S=P(Nc1ccccc1)(Nc1ccccc1)c1ccccc1; 101

Query: So what does the record say about growth for Clc1ccc(SSC(Cl)(Cl)Cl)cc1 ?
Response: 105

---

test system: HL-60(TB) leukemia; test: NCI-60 one-dose screen, 48 h; conditions: 10 µM unless noted
The panel holds about 83,000 compounds, 20% with a hit somewhere; the sample as a whole holds those more often. Activity calls are given as the source filed them. How the source made its calls: active means growth percent below 10; inactive means the rest.
One label from this list, please: active, inactive

Reference set (3 entries):
CCN1C(=S)N(CC)C2Nn3c(s/c(=C4\C(=O)N(C)c5ccccc54)c3=O)=NC21 (stereo not drawn); active
CNc1ccccc1C(=O)N/N=C/C=C/c1ccccc1; active
COc1cc(C2CC(c3ccc(C)cc3)=NN2C=O)ccc1Oc1ccnc2cc(Cl)ccc12 (stereo not drawn); inactive

Query: Hey, what did the test say about c1cc(C2=N[C@@H]3c4ccccc4C[C@@H]3O2)nc(C2=N[C@@H]3c4ccccc4C[C@@H]3O2)c1 ?
Response: inactive

Query: Hey, what did the test say about O=c1c2cccc3c(Nc4c(F)cccc4F)ccc(c32)c2nc3ccccc3n12 ?
Response: inactive

Query: Hey, what did the test say about Cc1ccc(-c2nc(SCC(=O)N3CCN(c4cc5c(cc4F)c(=O)c(C(=O)O)cn5C4CC4)CC3)nc(Cl)c2C#N)cc1 ?
Response: inactive

Query: Hey, what did the test say about c1cc[c]([Bi]([c]2ccccc2)[c]2ccccc2)cc1 ?
Response: inactive

Query: Hey, what did the test say about COc1ccc(-c2c3c(nc4n[nH]c(-c5ccc(Cl)cc5)c24)-c2ccccc2C(=O)C3=O)cc1 ?
Response: inactive

Query: Hey, what did the test say about NC(C(=O)O)C(O)c1ccc(OCc2ccccc2)c(OCc2ccccc2)c1 (stereo not drawn) ?
Response: inactive

Query: Hey, what did the test say about NC(N)=NC(N)=NCCCc1ccco1 ?
Response: inactive

Query: Hey, what did the test say about COC(=O)C1Cc2ccccc2CN1C(=O)c1ccc2c(c1)Cc1ccccc1-2 (stereo not drawn) ?
Response: inactive

Query: Hey, what did the test say about CCCCCCCCCCCCCCCC[N+]1(C)CCOCC1 ?
Response: active

---

test system: SNB-75 CNS; assay: NCI-60 one-dose screen, 48 h (100 = growth as untreated, 0 = no growth, -100 = all killed); settings: 10 µM unless noted
Compounds without any hit were thinned out: in the full panel of roughly 83,000, 20% have a hit.
Measure Name: growth (%)
One number for each entry, in %.

COc1ccc(/C=C\c2cc(OC)c(OC)c(OC)c2)cc1N/C=C\C(=O)c1c[nH]c2ccccc12; 19.1

// input: 5 molecules below; output: growth for each
1. CC(=O)O[C@H]1CC[C@H]2[C@@H]3CC[C@H]4CC=C(C)C[C@]4(C)[C@H]3CC[C@]12C
2. CN1CC2CCC(C1)C2=O
3. O=CC(Br)C(Br)c1ccccc1 (centres undefined)
4. CC(=O)N1N=C(c2ccccc2)CC1c1sc(N(CCCl)CCCl)nc1Cl (centres undefined)
5. CC12CC[C@H](O)C=C1/C(=N/O)CC1C2CCC2(C)C1CC[C@@H]2O (some centres undefined)

Response:
1. 110
2. 89.3
3. 92.6
4. 83.1
5. 79.2

---

system: SK-MEL-28 melanoma; assay: NCI-60 one-dose screen, 48 h (100 = growth as untreated, 0 = no growth, -100 = all killed); details: 10 µM unless noted
About 83,000 compounds went through this panel and 20% of them were active in at least one assay; those are over-represented in the sample as a whole.
Kindly state growth for each of the entries shown.
One number for each entry, in %.

S=P(N1CCCCCC1)(N1CC1)N1CC1; 116
O=C(O)c1cccc(CCl)c1; 110
CC(=O)O[C@H]1CC[C@H]2[C@@H]3CC[C@H]4CC=C(C)C[C@]4(C)[C@H]3CC[C@]12C; 112

// input: 3 compounds below; output: growth for each
1. COc1ccc(C(c2ccc(OC)cc2)C(Cl)(Cl)Cl)cc1
2. C[C@]12CC[C@H]3[C@@H](C[C@@H]4N=C(c5ccc(O)cc5)S[C@@]45C[C@H](O)CC[C@]35C)[C@@H]1CC[C@@H]2O
3. O=C1NC(=S)NC(=O)C1=Cc1ccccc1

Response:
1: 103; 2: 53.3; 3: 122

---

test system: OVCAR-4 ovarian; test: NCI-60 one-dose screen, 48 h; details: 10 µM unless noted
This is part of a sample that, as a whole, favours compounds with a hit. Of some 83,000 tested, about 20% had one in any assay. The source made the active and inactive calls. How the source made its calls: active means growth percent below 10; inactive means the rest.
One label from this list, please: active, inactive

Query: Hey, what did the test say about CN(Cc1cccnc1)N=O ?
Response: inactive

---

test system: HL-60(TB) leukemia; experiment: NCI-60 one-dose screen, 48 h; conditions: 10 µM unless noted
About 83,000 compounds went through this panel and 20% of them were active in at least one assay; those are over-represented in the sample as a whole. Calls of active or inactive are those of the source. The calls were made as follows: active = growth percent below 10; inactive = the rest.
One label from this list, please: yes = active, no = inactive

O=C(CCCl)OCCOc1ccccc1; no
Cc1cc(Nc2ccc(F)cc2)nc(N2CCN(c3ccnc4cc(Cl)ccc34)CC2)n1; yes
O=C1OCC2=C1C(c1cccc([N+](=O)[O-])c1)c1cc3c(cc1N2CCO)CCC3 (stereo unspecified); yes

Query: Hey, what did the test say about CC(=O)c1ccc2c(ccc3ccccc32)c1 ?
Response: no

Query: Hey, what did the test say about COc1ccc(C(=O)/C=C/c2ccc(C)cc2)cc1OC ?
Response: no

Query: Hey, what did the test say about COCCc1n(Cc2ccc3ccccc3c2)c2ccccc2[n+]1Cc1ccc2ccccc2c1 ?
Response: yes

---

tested on: SF-268 CNS; assay: NCI-60 one-dose screen, 48 h; details: 10 µM unless noted
Compounds without any hit were thinned out: in the full panel of roughly 83,000, 20% have a hit. Calls of active or inactive are those of the source. The calls were made as follows: active = growth percent below 10; inactive = the rest.
One label from this list, please: yes for active, no for inactive

COc1ccc(C2=NN(c3ccccc3)C(c3sc(N(CCCl)CCCl)nc3Cl)C2)cc1 (stereo unspecified); no
C/C(=C\C(=O)O[C@H]1[C@@H]2[C@H](C)CC[C@H]2[C@]2(C)O[C@@]1(C1CCCCC1)C[C@H]2OC(=O)CO)c1ccccc1; no
Nc1ncnc2c1c(C(=O)NO)cn2C1OC(CO)C(O)C1O (stereo unspecified); yes
CCOC(=O)/C(C#N)=C/c1ccc(N(CCCl)CCCl)cc1; no
O=C(O)CNC(=O)c1ccccc1; no
COC(=O)C[Se]C(=O)c1ccccc1OC(C)=O; no
CCCCN(CCCC)CC(O)c1ccccc1 (stereo unspecified); no
CCN1CC2(CN(CC)C1=S)C(=O)NC(=O)NC2=O; no
CC(=O)[O][Hg][CH2]C1(C)COC(C)([CH2][Hg][O]C(C)=O)CO1 (stereo unspecified); no
COc1ccc(OC)c(/C=C(/C)[N+](=O)[O-])c1; no

Query: Hey, what did the test say about C[C@]12CC[C@@H]3C4=C(CC[C@H]3[C@@H]1CC[C@@H]2O)CC(=O)CC4 ?
Response: no

Query: Hey, what did the test say about CCOc1ccc(C(O)CN(C)Cc2ccccc2)cc1Cl (stereo unspecified) ?
Response: no

Query: Hey, what did the test say about CCCCCCCC(=O)OCC/C=C/C1OC1C1OC(=O)/C=C\C=C\c2nc(oc2C)/C=C(/C)CCC2OC2C1OC(=O)NC(C)=O (stereo unspecified) ?
Response: yes

Query: Hey, what did the test say about Nc1nc(N)c(-c2ccc(Cl)c(Cl)c2)c(/C=C/c2ccc(S(=O)(=O)F)cc2)n1 ?
Response: no

Query: Hey, what did the test say about Nc1c(Br)cc2c3c(cccc13)-c1ccccc1-2 ?
Response: no

Query: Hey, what did the test say about Cc1ccc(C[As+](c2ccccc2)(c2ccccc2)c2ccccc2)cc1 ?
Response: no

Query: Hey, what did the test say about O=c1[nH]c2cc(Cl)ccc2n1C1CCN(CCCC(c2ccc(F)cc2)c2ccc(F)cc2)CC1 ?
Response: no

Query: Hey, what did the test say about [Cl][Hg][n]1cnc2c(Cl)c(Cl)c(Cl)cc21 ?
Response: no

Query: Hey, what did the test say about C/C(=N/OC(=O)N(C)C)c1ccc(Cl)cc1Cl ?
Response: no

Query: Hey, what did the test say about N#CC1c2ccccc2C=CN1C(=O)c1ccc(N(CCCl)CCCl)cc1 (stereo unspecified) ?
Response: no

Query: Hey, what did the test say about CC[C@H](C)[C@H](NC(=O)Nc1ccccc1)C(=O)N(C)[C@H](C[C@@H](OC(C)=O)c1nc(C(=O)N[C@@H](Cc2ccccc2)C[C@H](C)C(=O)OC)cs1)C(C)C ?
Response: no

Reference source: PubChem BioAssay (NCI)
